target: Cathepsin S (Homo sapiens, UniProt P25774); assay: Cathepsin S inhibition assay (fluorogenic peptide substrate); assay type: biochemical; settings: Table II, compounds of Formula I; read-out: Ki Cat. S
Sequence (P25774 115-331, species assumed): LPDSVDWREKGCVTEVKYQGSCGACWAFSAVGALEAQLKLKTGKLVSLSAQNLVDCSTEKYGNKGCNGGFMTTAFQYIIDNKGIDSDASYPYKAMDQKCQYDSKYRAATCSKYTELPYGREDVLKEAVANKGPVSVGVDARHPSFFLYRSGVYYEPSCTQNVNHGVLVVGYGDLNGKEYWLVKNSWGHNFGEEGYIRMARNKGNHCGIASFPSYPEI
Recorded Ki for the following compounds

The cases that follow already have their Ki on record.
• COc1ccc(NCCNC(=O)[C@H](Cc2ccc(-c3cccc(CO)c3)cc2)NC(=O)c2cccc(C)c2)cc1 [Compound 284] = < 1 µM
• COc1ccc(NCCNC(=O)[C@H](Cc2ccccc2)NC(=O)c2cccc(-c3csc(C)n3)c2)cc1 [Compound 56] = < 1 µM
• CC(C(=O)N[C@@H](CC1CCCCC1)C(=O)NCCNc1ccc(F)cc1)c1ccc(O)cc1 (stereo partly shown) [Compound 311] = < 0.1 µM
• COc1ccc(NCCNC(=O)[C@H](CC2CCCCC2)NC(=O)c2cc(OC)cc(OC)c2)cc1 [Compound 180] = < 0.1 µM
• COc1ccc(NCCNC(=O)[C@H](Cc2ccc(-c3cnc(OC)nc3OC)cc2)NC(=O)c2cccc(C)c2)cc1 [Compound 291] = < 1 µM
• COc1ccc(NCCNC(=O)[C@H](Cc2ccccc2)NC(=O)c2cnn(-c3ccccc3)c2C(F)(F)F)cc1 [Compound 41] = < 1 µM

Lookup: Ki / Cathepsin S (Homo sapiens, UniProt P25774) / COc1cc(OC)nc(Oc2cccc(C(=O)N[C@@H](CC3CCCCC3)C(=O)NCCNc3ccc(OC(F)(F)F)cc3)c2)n1 [Compound 73]
< 0.1 µM

----------
Target: Cathepsin K (Homo sapiens)
Sequence (P43235 115-329): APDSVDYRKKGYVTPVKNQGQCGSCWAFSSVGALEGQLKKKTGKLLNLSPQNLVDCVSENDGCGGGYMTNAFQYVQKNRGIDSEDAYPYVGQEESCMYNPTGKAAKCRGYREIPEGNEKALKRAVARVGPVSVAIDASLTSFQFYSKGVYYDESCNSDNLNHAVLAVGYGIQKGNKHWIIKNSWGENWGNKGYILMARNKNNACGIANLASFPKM
Assay: Cathepsin K inhibition assay (fluorogenic peptide substrate); selectivity ratio vs cathepsin S
Format: biochemical
Details: ratio of cathepsin K inhibition constant to cathepsin S inhibition constant; Table II
readout type: Selectivity for Cat. S over Cat. K

* O=C(N[C@@H](CC1CCCCC1)C(=O)NCCNc1ccc(OC(F)(F)F)cc1)c1ccc(-c2ccccc2Cl)cc1 | + (+, >10)
* COc1ccc(NCCNC(=O)[C@H](Cc2ccccc2)NC(=O)c2cnn(-c3ccccc3)c2C(F)(F)F)cc1 | ++ (++, >100)
* COc1ccc(NCCNC(=O)[C@H](CC2CCCCC2)NC(=O)c2cccc(F)c2C)cc1 | +++ (+++, >1000)
* COc1ccc(NCCNC(=O)[C@H](Cc2ccccc2)NC(=O)Nc2ccc(Cl)cc2)cc1 | + (+, >10)
* O=C(N[C@@H](CC1CCCCC1)C(=O)NCCNc1ccc(OC(F)(F)F)cc1)c1ccc(-c2cc(C(F)(F)F)ccc2Cl)o1 | +++ (+++, >1000)
* O=C(N[C@@H](CC1CCCCC1)C(=O)NCCNc1ccc(OC(F)(F)F)cc1)c1ccc(-n2cncn2)cc1 | + (+, >10)

Find the recorded Selectivity for Cat. S over Cat. K belonging to COc1ccc(NCCNC(=O)[C@H](CC2CCCCC2)NC(=O)c2ccc(-c3cc(C(F)(F)F)ccc3Cl)o2)cc1 and report it.
++ (++, >100)

Find the recorded Selectivity for Cat. S over Cat. K belonging to O=C(N[C@@H](CC1CCCCC1)C(=O)NCCNc1ccc(F)cc1)c1ccc(-c2ccc(F)cc2)o1 and report it.
++ (++, >100)

Find the recorded Selectivity for Cat. S over Cat. K belonging to O=C(Cc1ccc(F)cc1Cl)N[C@@H](CC1CCCCC1)C(=O)NCCNc1ccc(F)cc1 and report it.
+++ (+++, >1000)

Find the recorded Selectivity for Cat. S over Cat. K belonging to COc1ccc(NCCNC(=O)[C@H](CC2CCCCC2)NC(=O)c2cc(C)c(OC)c(C)c2)cc1 and report it.
++ (++, >100)

Find the recorded Selectivity for Cat. S over Cat. K belonging to CS(=O)(=O)Nc1ccc(C(=O)N[C@@H](CC2CCCCC2)C(=O)NCCNc2ccc(F)cc2)cc1 and report it.
+ (+, >10)

----------
molecular target: Cathepsin K (Homo sapiens, UniProt P43235); assay: Cathepsin K inhibition assay (fluorogenic peptide substrate); selectivity ratio vs cathepsin S; type: biochemical; conditions: ratio of cathepsin K inhibition constant to cathepsin S inhibition constant; Table II
readout type: Selectivity for Cat. S over Cat. K

The cases that follow already have their Selectivity for Cat. S over Cat. K on record.
- COc1ccc(NCCNC(=O)[C@H](Cc2ccc(-c3cccc(CO)c3)cc2)NC(=O)c2cccc(C)c2)cc1: ++ (++, >100)
- O=C(Cc1ccc(OC(F)(F)F)cc1)N[C@@H](CC1CCCCC1)C(=O)NCCNc1ccc(F)cc1: ++ (++, >100)
- COc1cc(OC)nc(-c2ccc(C(=O)N[C@@H](CC3CCCCC3)C(=O)NCCNc3ccc(OC(F)(F)F)cc3)cc2)n1: +++ (+++, >1000)
- O=C(Cc1cccs1)N[C@@H](CC1CCCCC1)C(=O)NCCNc1ccc(F)cc1: +++ (+++, >1000)
- COc1ccc(NCCNC(=O)[C@H](CCC2CCCCC2)NC(=O)[C@@H](C)c2ccccc2)cc1: +++ (+++, >1000)
- COc1ccc(NCCNC(=O)[C@H](Cc2c[nH]c3ccccc23)NC(=O)c2cccc(C)c2)cc1: +++ (+++, >1000)

Lab note: next compound to report on.
Find the recorded Selectivity for Cat. S over Cat. K belonging to COc1ccc(NCCNC(=O)[C@H](CC2CCCCC2)NC(=O)c2nc(C)oc2C(F)(F)F)cc1 and report it.
+++ (+++, >1000)

----------
target: Cathepsin K (Homo sapiens); assay: Cathepsin K inhibition assay (fluorogenic peptide substrate); selectivity ratio vs cathepsin S; format: biochemical; settings: ratio of cathepsin K inhibition constant to cathepsin S inhibition constant; Table II
readout type: Selectivity for Cat. S over Cat. K

The cases that follow already have their Selectivity for Cat. S over Cat. K on record.
• O=C(N[C@@H](CC1CCCCC1)C(=O)NCCNc1ccc(OC(F)(F)F)cc1)c1cccc(CN2CCOCC2)c1 = + (+, >10)
• O=C(N[C@@H](CC1CCCCC1)C(=O)NCCNc1ccc(OC(F)(F)F)cc1)c1ccc(OC(F)F)cc1 = + (+, >10)
• Cc1nc(N)sc1C(=O)N[C@@H](CC1CCCCC1)C(=O)NCCNc1ccc(OC(F)(F)F)cc1 = ++ (++, >100)
• COc1ccc(NCCNC(=O)[C@H](CC2CCCCC2)NC(=O)c2cccc(N(C)C)c2)cc1 = + (+, >10)
• COc1ccc(NCCNC(=O)[C@H](Cc2ccccc2)NC(=O)c2cnn(-c3ccc(Cl)cc3)c2C(F)(F)F)cc1 = ++ (++, >100)

Lookup: Selectivity for Cat. S over Cat. K / Cathepsin K (Homo sapiens) / COc1ccc(NCCNC(=O)[C@H](CC2CCCCC2)NC(=O)c2cccc(C(F)(F)F)c2)cc1
++ (++, >100)

----------
target: Cathepsin S (Homo sapiens, UniProt P25774); assay: Cathepsin S inhibition assay (fluorogenic peptide substrate); assay type: biochemical; settings: Table II, compounds of Formula I; read-out: Ki Cat. S
pKi: −log10 of the molar value.
Recorded pKi for the following molecules

The cases that follow already have their pKi on record.
- COc1ccc(NCCNC(=O)[C@H](Cc2ccc(O)cc2)NC(=O)c2cccc(C)c2)cc1: > 7.00
- COc1ccc(NCCNC(=O)[C@H](CCC2CCCCC2)NC(=O)c2ccc(-c3cccc(C(F)(F)F)c3)o2)cc1: > 6.00
- Cc1nc(-c2ccc(C(=O)N[C@@H](CC3CCCCC3)C(=O)NCCNc3ccc(OC(F)(F)F)cc3)cc2)no1 [Compound 27]: > 7.00
- COc1ccc(NCCNC(=O)[C@H](Cc2cccc(Cl)c2)NC(=O)c2ccc(-c3cccc(C(F)(F)F)c3)o2)cc1: > 7.00
- COc1ccc(NCCNC(=O)[C@H](CC2CCCCC2)NC(=O)c2ccc(-c3cccc(OC)c3)cc2)cc1: > 7.00

Find the recorded pKi belonging to O=C(Cc1ccc(F)cc1F)N[C@@H](CC1CCCCC1)C(=O)NCCNc1ccc(F)cc1 and report it.
> 7.00

Find the recorded pKi belonging to COc1ccc(NCCNC(=O)C(NC(=O)c2cccc(C)c2)c2cccc(Cl)c2Cl)cc1 (centres unmarked) and report it.
> 6.00

Find the recorded pKi belonging to COc1ccc(NCCNC(=O)C(NC(=O)c2cccc(C)c2)c2cccc3ccccc23)cc1 (centres unmarked) and report it.
> 6.00

----------
Recorded Ki for the following compounds
target: UniProtKB P25774; assay: Cathepsin S inhibition assay (fluorogenic peptide substrate); format: biochemical; conditions: Table II, compounds of Formula I; read-out: Ki Cat. S

The cases that follow already have their Ki on record.
• O=C(N[C@@H](CC1CCCCC1)C(=O)NCCNc1ccc(OC(F)(F)F)cc1)c1ccc(-c2cccc(F)c2)cc1 [Compound 198] = < 1000 nM
• COc1ccc(NCCNC(=O)[C@H](Cc2ccccc2)NC(=O)c2cccc3c2OCC3)cc1 [Compound 52] = < 10000 nM
• COc1ccc(NCCNC(=O)[C@H](Cc2ccc(C#N)cc2)NC(=O)c2cccc(C)c2)cc1 [Compound 240] = < 100 nM

Lab note: next compound to report on.
Find the recorded Ki belonging to COc1ccc(NCCNC(=O)[C@H](CCC2CCCCC2)NC(=O)c2cc3cc(F)ccc3[nH]2)cc1 [Compound 132] and report it.
< 1000 nM
